Test system: P12-Ichikawa
experimental-details: cell viability relative to DMSO control; higher = less cytotoxic
test-parameters: RPMI 5 mM glucose + 10% FBS; 48 h; 0.000781 µM
Reported values of cell viability for individual entries
Answer format: numeric, % implied, no suffix.

Illustrative cases are given below, each with its answer.
{"columns": ["molecule", "readout-type", "result-value"],
 "data": [
  ["CCn1c(C(=O)N(C2CC2)C2CC2)cc2c3c(ncn3C)c(Nc3cc(C)n(C)n3)nc21", "cell viability", 92.7],
  ["Cc1cnc(Nc2cccc(CN3CCOCC3)c2)nc1Nc1cccc([S+](=O)([O-])NC(C)(C)C)c1", "cell viability", 91],
  ["CCOc1ccccc1N/N=C1/C(=O)N(c2nc(-c3ccccc3)cs2)N=C1C", "cell viability", 115],
  ["CC[C@H](C)C(=O)O[C@H]1C[C@@H](C)\\C=C2\\C=C/[C@H](C)[C@H](CC[C@@H]3C[C@@H](O)CC(=O)O3)[C@@H]12", "cell viability", 76.3],
  ["Clc1ccc(CCC(Cn2ccnc2)Sc2c(Cl)cccc2Cl)cc1 (stereo not drawn)", "cell viability", 90]
]}

Record summary for N#CC1(c2cccc(C(=O)Nc3cc(Oc4ccc5nc(NC(=O)C6CC6)sc5n4)ccc3F)c2Cl)CC1 : reported cell viability = 110

Record summary for CN1CCC(CNc2ccc3ncc(-c4cccc(OC(F)(F)F)c4)n3n2)CC1 : reported cell viability = 100

Record summary for O=C1c2ccccc2-c2n[nH]c3cccc1c23 : reported cell viability = 106

====

Tested on: P12-Ichikawa
experimental-details: cell viability relative to DMSO control; higher = less cytotoxic
test-parameters: RPMI 5 mM glucose + 10% FBS; 48 h; 1.71 µM
readout-type: cell viability (%)
Answer format: numeric, % implied, no suffix.

Illustrative cases are given below, each with its answer.
{"columns": ["compound", "units-of-measure", "cell viability"],
 "data": [
  ["CCn1c(C(=O)N(C2CC2)C2CC2)cc2c3c(ncn3C)c(Nc3cc(C)n(C)n3)nc21", "%", 110],
  ["COC(=O)CCC1=C(C)C2=CC3=NC(=CC4=C(C)C(=C([NH]4)C=C\\5N=C(C=C1[NH]2)\\C(=C5C)CCC(O)=O)C=C)\\C6=C\\C=C(/[C@@H](C(=O)OC)[C@@]36C)C(=O)OC", "%", 96.8]
]}

Record summary for CCC(=O)O[C@@]1(CC[C@H]2[C@@H]3CCC/4=C/C(=O)CC[C@]4(C)[C@H]3CC[C@]12C)C(=O)CO : reported cell viability = 109

Record summary for CC(C)(C)[C@]1(O)C[C@@H]2OC(=O)C[C@@]23C(=O)O[C@@H]2OC(=O)[C@H](O)C213 (some centres not stated) : reported cell viability = 105

Record summary for Clc1ccc(CCC(Cn2ccnc2)Sc2c(Cl)cccc2Cl)cc1 (configuration not stated) : reported cell viability = 96

Record summary for CC[C@H](CO)Nc1nc(NCc2ccccc2)c2ncn(C(C)C)c2n1 : reported cell viability = 82.8

Record summary for Clc1ccc(C(c2ccc(Cl)cc2)[n+]2ccn(CC(OCc3ccc(Cl)cc3Cl)c3ccc(Cl)cc3Cl)c2)cc1 (configuration not stated) : reported cell viability = 100

Record summary for CN(C)C(=O)[C@H](O)[C@H](Cc1ccccc1)NC(=O)c1cc2cc(Cl)ccc2[nH]1 : reported cell viability = 130

Record summary for COc1cccc(N(C)C(=S)Oc2ccc3c(c2)CCCC3)n1 : reported cell viability = 104

Record summary for C/C1=C/C(=C(/CNC(=O)C2=CC(=CC3=C2C=N[N]3C4CCCC4)C5=CC=C(CN6CCOCC6)C=C5)C(=O)N1)C : reported cell viability = 123

Record summary for COc1ccc(/C=C/C(=O)Nc2ccccc2C(=O)O)cc1OC : reported cell viability = 106

Record summary for CCCCCN(C)CCC(O)(P(=O)([O-])O)P(=O)(O)O : reported cell viability = 89.7

Record summary for N#Cc1cc(NC(=O)Nc2nnc(-c3ccncc3)s2)ccc1-c1cn[nH]c1 : reported cell viability = 113

Record summary for CC1(C)[C@@H](O)CC[C@@]2(C)[C@H]1CC[C@]3(C)[C@@H]2C(=O)\C=C/4[C@@H]5C[C@](C)(CC[C@]5(C)CC[C@@]34C)C(O)=O : reported cell viability = 122

Record summary for Cc1nc2ccc(CN(C)c3ccc(C(=O)N[C@@H](CCC(=O)O)C(=O)O)s3)cc2c(=O)[nH]1 : reported cell viability = 42.6

Record summary for CC(O)(C[S+](=O)([O-])c1ccc(F)cc1)C(=O)Nc1ccc(C#N)c(C(F)(F)F)c1 (configuration not stated) : reported cell viability = 98.9

Record summary for CCc1nc(N)nc(N)c1-c1ccc(Cl)cc1 : reported cell viability = 90

Record summary for C[C@@H](Cc1cc2c(c(C(N)=O)c1)N(CCCO)CC2)NCCOc1ccccc1OCC(F)(F)F : reported cell viability = 101

Record summary for CC(C)[C@H](O)C(=O)N[C@@H](C)C(=O)N[C@@H]1C(=O)N(C)CCc2ccccc21 : reported cell viability = 113

Record summary for CN(C)c1ccc(-c2nc3c(N4CCN(CC(=O)Nc5nccs5)CC4)c(Cl)cnc3[nH]2)cc1 : reported cell viability = 115

Record summary for CN(C)CCc1c[nH]c2ccc(Cn3cncn3)cc12 : reported cell viability = 30.9

Record summary for OC(=O)CNC(=O)\C1=C(/O)C2=CC=CC=C2N(CC3=CC=CC=C3)C1=O : reported cell viability = 107
